System: E. coli O18:K1:H7
Test: Bacterial killing assay in 10% blood
Assay type: cell-based
Set-up: scale not given here
Conditions: Table 5; 3 μM, 10% blood, 3000 CFU; blood 3.4
Would you kindly list CFU 1 hour for each of these sequences?

In: I would be grateful if you could share the reported CFU 1 hour for GFIQRISKGGLIKTKRKRKKQRVKIAY (homo sapiens) [Peptide #3, TFPI aas 242-268] .
Out: 3.2

In: I would be grateful if you could share the reported CFU 1 hour for NFQRKEKREVIYKVKTKIKAMR (homo sapiens) [Peptide #2, scrambled control peptide, aas 255-276 scramble, reference compound] .
Out: 3.4

In: I would be grateful if you could share the reported CFU 1 hour for LLGDFFRKSKEKIGKEFKRIVQRIKDFLRNLVPRTES [Peptide #4, reference compound] .
Out: 3.1

In: I would be grateful if you could share the reported CFU 1 hour for TKRKRKKQRVKIAYEEIFVKNM (homo sapiens) [Peptide #1, TFPI aas 255-276, the 22 C-terminal amino acids of TFPI] .
Out: 3.4
